Tested on: RSV A2
experimental_protocol: Screening for RSV inhibition using Viral ToxGlo assay (cytopathic effect inhibition in HEp-2 cells)
Format: cell-based, Respiratory Syncytial Virus (RSV)
measurement_context: human respiratory syncytial virus; RSV A2 in HEp-2 cells, MOI 0.5, 72h p.i., cytopathic effect inhibition relative to virus control, Viral ToxGlo luminescence
So basically: is EC50 under 0.05 µM? Then Satisfied. Not under? Then Not satisfied.

input: # TODO verify EC50 < 0.05 µM strictly for this molecule: O=C(N=C1NCCN1)c1cc(F)c(Nc2cccc(C(=O)N3CCOCC3)c2)c(C2CCCO2)c1 (stereo not drawn)
output: Not satisfied

input: # TODO verify EC50 < 0.05 µM strictly for this molecule: CC1(NC(=O)c2ccnc(Nc3c(F)cc(C(=O)N=C4NCCN4)cc3C3CC3)c2F)CC1
output: Not satisfied

input: # TODO verify EC50 < 0.05 µM strictly for this molecule: CC(C)(O)c1cc(C(=O)N=C2NCCN2)ccc1Nc1cccc(C(=O)N2CCOCC2)c1C(F)(F)F
output: Satisfied

input: # TODO verify EC50 < 0.05 µM strictly for this molecule: CC(C)(C)c1cc(C(=O)N=C2NCCN2)ccc1Nc1cccc(C(=O)NCCC2CCCCO2)c1 (stereo not drawn)
output: Not satisfied

input: # TODO verify EC50 < 0.05 µM strictly for this molecule: CC1(NC(=O)c2cccc(Nc3ccc(C(=O)N=C4NCCN4)cc3C(C)(C)C)c2Cl)CC1
output: Satisfied

input: # TODO verify EC50 < 0.05 µM strictly for this molecule: O=C(N=C1NCCN1)c1ccc(Nc2cccc(C(=O)NC3(C(F)(F)F)CC3)c2)c(C2CC2)c1
output: Not satisfied

----------
Answer each item with its documented EC50.
Tested on: RSV A2
experimental_protocol: Screening for RSV inhibition using Viral ToxGlo assay (cytopathic effect inhibition in HEp-2 cells)
Assay type: cell-based, Respiratory Syncytial Virus (RSV)
measurement_context: human respiratory syncytial virus; RSV A2 in HEp-2 cells, MOI 0.5, 72h p.i., cytopathic effect inhibition relative to virus control, Viral ToxGlo luminescence

Given item CC(C)NC(=O)c1ccccc1Nc1ccc(C(=O)N=C2NCCN2)cc1C(C)(C)C [Compound 54] , the value recorded as its EC50 is 166 nM

Given item CC(C)C(=O)Nc1cccc(Nc2ccc(C(=O)N=C3NCCN3)cc2Cl)c1 [Compound 72] , the value recorded as its EC50 is 1230 nM

Given item CC(C)NC(=O)c1cccc(Nc2ccc(C(=O)N=C3NCCN3)cc2C2CC2)c1-c1ccoc1 [Compound 92] , the value recorded as its EC50 is 277 nM

Given item CC(C)NC(=O)c1cccc(Nc2ccc(C(=O)N=C3NCCN3)cc2C(C)(C)C)c1 [Compound 19] , the value recorded as its EC50 is 22.8 nM

Given item O=C(N=C1NCCN1)c1ccc(Nc2cccc(C(=O)NC3CCOCC3)c2)c(C2CCCC2)c1 [Compound 96] , the value recorded as its EC50 is 839 nM

Given item CC(C)(C)C(=O)Nc1cccc(Nc2ccc(C(=O)N=C3NCCN3)cc2C(C)(C)C)c1 [Compound 20] , the value recorded as its EC50 is 23.5 nM

Given item CC(C)=CCn1nnnc1-c1cccc(Nc2ccc(C(=O)N=C3NCCN3)cc2C2CC2)c1 [Compound 60] , the value recorded as its EC50 is 241 nM

Given item O=C(N=C1NCCN1)c1ccc(Nc2cccc(C(=O)NC3CCOCC3)c2Cl)c(C2CC2)c1 [Compound 50] , the value recorded as its EC50 is 136 nM

----------
System: RSV A2
experimental_protocol: Screening for RSV inhibition using Viral ToxGlo assay (cytopathic effect inhibition in HEp-2 cells)
Format: cell-based, Respiratory Syncytial Virus (RSV)
measurement_context: human respiratory syncytial virus; RSV A2 in HEp-2 cells, MOI 0.5, 72h p.i., cytopathic effect inhibition relative to virus control, Viral ToxGlo luminescence
Answer each item with its documented EC50.
Numbers only; they are read as nM.

Given item O=C(N=C1NCCN1)c1cc(F)c(Nc2nccc(C(=O)NC34CC(C3)C4)c2Cl)c(C2CC2)c1 [Compound 164] , the value recorded as its EC50 is 3.8

Given item O=C(N=C1NCCN1)c1ccc(Nc2cccc(OCC3COCCO3)c2Cl)c(C2CC2)c1 (stereo not shown) [Compound 23] , the value recorded as its EC50 is 30.3

Given item O=C(N=C1NCCN1)c1ccc(Nc2cccc(OCC3COCCO3)c2)c(C2CCCC2)c1 (stereo not shown) [Compound 51] , the value recorded as its EC50 is 140

Given item O=C(N=C1NCCN1)c1cc(F)c(Nc2nccc(C(=O)N3CCOCC3)c2F)c(C2CC2)c1 [Compound 156] , the value recorded as its EC50 is 40.7

Given item O=C(N=C1NCCN1)c1ccc(Nc2cccc(C(=O)N3C[C@@H]4C[C@H]3CO4)c2Cl)c(C2CC2)c1 [Compound 120] , the value recorded as its EC50 is 19.5

Given item CC(C)NC(=O)c1cc(F)cc(Nc2ccc(C(=O)N=C3NCCN3)cc2C2CC2)c1 [Compound 32] , the value recorded as its EC50 is 49.2

Given item CC(C)C(=O)Nc1cccc(Nc2ccc(C(=O)N=C3NCCN3CC(F)F)cc2C2CC2)c1 [Compound 113] , the value recorded as its EC50 is 59.9

Given item CC1(NC(=O)c2cccc(Nc3ccc(C(=O)N=C4NCCN4)cc3C3CCCO3)c2)CC1 (stereo not shown) [Compound 140] , the value recorded as its EC50 is 227

Given item CC(C)(O)c1cc(C(=O)N=C2NCCN2)ccc1Nc1cccc(C(=O)N2CCOCC2)c1Cl [Compound 45] , the value recorded as its EC50 is 91.5

Given item O=C(N=C1NCCN1)c1ccc(Nc2cccc(C(=O)N3CCOC(C(F)(F)F)C3)c2Cl)c(C2CC2)c1 (stereo not shown) [Compound 121] , the value recorded as its EC50 is 5.1

Given item CC1(NC(=O)c2cccc(Nc3ccc(C(=O)N=C4NCCN4)cc3C3CCC3)c2)CC1 [Compound 18] , the value recorded as its EC50 is 21.2

Given item CC(C)NC(=O)c1cccc(Nc2cc(F)c(C(=O)N=C3NCCN3)cc2C2CC2)c1 [Compound 131] , the value recorded as its EC50 is 77.9

Given item O=C(N=C1NCCN1)c1cc(F)c(Nc2nccc(C(=O)N3C[C@@H]4C[C@H]3CO4)c2Cl)c(C2CC2)c1 [Compound 155] , the value recorded as its EC50 is 51.8

Given item CC(C)(C)c1cc(C(=O)N=C2NCCN2)ccc1Nc1cccc(C(=O)NCCC2CCCOC2)c1 (stereo not shown) [Compound 33] , the value recorded as its EC50 is 50.2

Given item O=C(N=C1NCCN1)c1ccc(Nc2cccc(OCCCC3CCCCC3)c2)c(C2CC2)c1 [Compound 22] , the value recorded as its EC50 is 26

Given item CC1(NC(=O)c2ccnc(Nc3c(F)cc(C(=O)N=C4NCCN4)cc3C3CC3)c2Cl)CC1 [Compound 136] , the value recorded as its EC50 is 32

----------
Answer each item with its documented EC50.
System: RSV A2
experimental_protocol: Screening for RSV inhibition using Viral ToxGlo assay (cytopathic effect inhibition in HEp-2 cells)
Format: cell-based, Respiratory Syncytial Virus (RSV)
measurement_context: human respiratory syncytial virus; RSV A2 in HEp-2 cells, MOI 0.5, 72h p.i., cytopathic effect inhibition relative to virus control, Viral ToxGlo luminescence
Numbers only; they are read as nM.

Given item O=C(N=C1NCCN1)c1ccc(Nc2cccc(C(=O)NCC3CCCO3)c2Cl)c(C2CC2)c1 (stereo not shown) , the value recorded as its EC50 is 45

Given item CC(C)C1(NC(=O)c2cccc(Nc3ccc(C(=O)N=C4NCCN4)cc3C3CC3)c2)CC1 , the value recorded as its EC50 is 1.6

Given item CC(C)C(=O)Nc1cccc(Nc2ccc(C(=O)N=C3NCCN3)cc2C(C)(C)C)c1 , the value recorded as its EC50 is 55.5

Given item C=C(C)c1cc(C(=O)N=C2NCCN2)ccc1Nc1cccc(C(=O)NCCC(C)C)c1 , the value recorded as its EC50 is 42.3

Given item CC(C)CNC(=O)c1ccccc1Nc1ccc(C(=O)N=C2NCCN2)cc1C(C)(C)C , the value recorded as its EC50 is 174

Given item O=C(N=C1NCCN1)c1ccc(Nc2cccc(C(=O)N3CCOCC3C(F)(F)F)c2Cl)c(C2CC2)c1 (stereo not shown) , the value recorded as its EC50 is 7.8

Given item CC1(C(=O)Nc2cccc(Nc3c(F)cc(C(=O)N=C4NCCN4)cc3C3CC3)c2)COC1 , the value recorded as its EC50 is 35

Given item CC(C)NC(=O)c1cccc(Nc2c(F)cc(C(=O)N=C3NCCN3)cc2C2CC2)c1F , the value recorded as its EC50 is 7.3

Given item O=C(N=C1NCCN1)c1ccc(Nc2cccc(C(=O)NCCC3CCOCC3)c2)c(C2CC2)c1 , the value recorded as its EC50 is 207

Given item CC(C)NC(=O)c1cc(C#N)cc(Nc2ccc(C(=O)N=C3NCCN3)cc2C2CC2)c1 , the value recorded as its EC50 is 710

Given item CC(=O)N1CCN/C1=N\C(=O)c1ccc(Nc2cccc(NC(=O)C(C)C)c2)c(C2CC2)c1 , the value recorded as its EC50 is 324

Given item CCC1(NC(=O)c2cccc(Nc3ccc(C(=O)N=C4NCCN4)cc3C3CC3)c2)CC1 , the value recorded as its EC50 is 47.7

Given item O=C1CN/C(=N\C(=O)c2ccc(Nc3cccc(OCCCC4CCCCC4)c3)c(C3CC3)c2)N1 , the value recorded as its EC50 is 77.2

Given item CC(C)NC(=O)c1cc(F)cc(Nc2ccc(C(=O)N=C3NCCN3)cc2C2CC2)c1F , the value recorded as its EC50 is 233

Given item CC1(NC(=O)c2cccc(Nc3ncc(C(=O)N=C4NCCN4)cc3C3CC3)c2Cl)CC1 , the value recorded as its EC50 is 253

Given item CC(C)(C)c1cc(C(=O)N=C2NCCN2)ccc1Nc1cccc(C(=O)NCCC2CCOCC2)c1 , the value recorded as its EC50 is 66.2

Data provenance: patent US12617756B2
